Items are presented alongside their recorded speed of sound.
Details: 288.15 K; 101 kPa; Liquid; Linear variable-path acoustic interferometer
Form entry: value (m/s) — number only.

INSERT INTO measurements (compound, assay_result) VALUES
  ('Cc1ccccc1 [toluene]', 1358.5),
  ('C1CCOC1 [tetrahydrofuran]', 1323.1),
  ('Cc1cc(C)cc(C)c1 [1,3,5-trimethylbenzene]', 1412.3),
  ('Cc1ccccc1C [1,2-dimethylbenzene]', 1388.5),
  ('Cc1ccc(C)cc1 [1,4-dimethylbenzene]', 1357.5);

The reported value for c1ccccc1 [benzene] in terms of speed of sound is 1352.4

Please fill in: speed of sound reported for Cc1cccc(C)c1 [1,3-dimethylbenzene] = 1373.2

* * *

Details: 318.15 K; 101.33 kPa; Liquid; Capillary tube (Ostwald / Ubbelohde) method
Examples of compounds with documented viscosity follow.
Number only, in mPa·s; omit the unit.

Example results:
INSERT INTO results (compound, unit_string, assay_result) VALUES
  ('Cc1cccc(C)c1 [1,3-dimethylbenzene]', 'mPa·s', 0.4684),
  ('Cc1ccccc1 [toluene]', 'mPa·s', 0.4379);

In plain terms, Cc1ccccc1C [1,2-dimethylbenzene] has a documented viscosity of 0.5972

The compound identified as Cc1ccc(C)cc1 [1,4-dimethylbenzene] registered its viscosity at 0.4912

Reported viscosity ( Cc1cc(C)cc(C)c1 [1,3,5-trimethylbenzene] ) = 0.5066

Query C1CCOC1 [tetrahydrofuran] yields viscosity of 0.3762

Quick note, viscosity for c1ccccc1 [benzene] landed at 0.467

* * *

// reported speed of sound for each item listed
Details: 318.15 K; 101.33 kPa; Liquid; Linear variable-path acoustic interferometer
The response must be a number in m/s with no trailing unit.

Examples with their reported speed of sound follow.
INSERT INTO assay_data (compound, assay_result) VALUES
  ('Cc1cccc(C)c1', 1243),
  ('c1ccccc1', 1207.2);

speed of sound for Cc1cc(C)cc(C)c1 is 1279

speed of sound in this record for Cc1ccccc1C : 1285.8

Field speed of sound (entry Cc1ccccc1 ) reads 1221

Sure, the documented speed of sound for C1CCOC1 [tetrahydrofuran] is 1186.4

So, Cc1ccc(C)cc1 ? Its speed of sound was 1230.3

* * *

Details: 298.15 K; 101.33 kPa; Liquid; Linear variable-path acoustic interferometer
± gives the expanded uncertainty stated by the source.
measure: speed of sound

INSERT INTO assay_data (compound, assay_result) VALUES
  ('C1CCOC1 [tetrahydrofuran]', '1276.6 ± 1.6 m/s'),
  ('Cc1cccc(C)c1', '1326.6 ± 1.6 m/s'),
  ('c1ccccc1', '1303.5 ± 1.6 m/s'),
  ('Cc1ccc(C)cc1', '1316.4 ± 1.6 m/s'),
  ('Cc1cc(C)cc(C)c1', '1369.8 ± 1.7 m/s'),
  ('Cc1ccccc1C', '1350.3 ± 1.6 m/s');

Now look at this entry.
response.value for Cc1ccccc1 (field: speed of sound) = 1310.5 ± 1.6 m/s

* * *

Settings: 288.15 K; 101 kPa; Liquid; Capillary tube (Ostwald / Ubbelohde) method
measure: viscosity (mPa·s)
The figure you give is taken to be in mPa·s; do not add the unit.

Here's what some known entries look like.
INSERT INTO assay_data (molecule, assay_result) VALUES
  ('Cc1cccc(C)c1 [1,3-dimethylbenzene]', 0.6696),
  ('Cc1ccccc1C [1,2-dimethylbenzene]', 0.8623),
  ('Cc1ccccc1 [toluene]', 0.6456);

Data point: c1ccccc1 [benzene] ; viscosity = 0.693

# viscosity (molecule: Cc1ccc(C)cc1 [1,4-dimethylbenzene] ) is 0.7084

Recorded result, C1CCOC1 [tetrahydrofuran] , viscosity: 0.5129

Noted for Cc1cc(C)cc(C)c1 [1,3,5-trimethylbenzene] : its viscosity reads 0.7592

* * *

Conditions: 308.15 K; 101.33 kPa; Liquid; Linear variable-path acoustic interferometer
measure: speed of sound (m/s)
Please respond with the number in m/s and leave the unit unwritten.

Recorded speed of sound, per entry:
INSERT INTO assay_data (molecule, measure, assay_result) VALUES
  ('Cc1ccccc1C', 'speed of sound', 1321.4),
  ('C1CCOC1 [tetrahydrofuran]', 'speed of sound', 1231.7),
  ('Cc1cccc(C)c1', 'speed of sound', 1281),
  ('c1ccccc1', 'speed of sound', 1257.4);

The molecule Cc1ccccc1 showed speed of sound equal to 1266.2

Please fill in: speed of sound reported for Cc1cc(C)cc(C)c1 = 1325.2

Recorded speed of sound (molecule Cc1ccc(C)cc1 ): 1268

* * *

Listing: viscosity of selected compounds
Settings: 308.15 K; 101.33 kPa; Liquid; Capillary tube (Ostwald / Ubbelohde) method
Report only the number, with the unit mPa·s understood.

INSERT INTO assay_data (compound, measure, unit_string, assay_result) VALUES
  ('Cc1ccccc1', 'viscosity', 'mPa·s', 0.502),
  ('Cc1ccc(C)cc1', 'viscosity', 'mPa·s', 0.5501),
  ('Cc1cc(C)cc(C)c1', 'viscosity', 'mPa·s', 0.5792),
  ('Cc1cccc(C)c1', 'viscosity', 'mPa·s', 0.5229),
  ('C1CCOC1 [tetrahydrofuran]', 'viscosity', 'mPa·s', 0.4125),
  ('c1ccccc1', 'viscosity', 'mPa·s', 0.5395);

Now look at this entry.
Looking up Cc1ccccc1C , I see its viscosity listed as 0.669

* * *

Details: 298.15 K; 101.33 kPa; Liquid; Capillary tube (Ostwald / Ubbelohde) method
Numbers after ± are expanded uncertainties.
measure: viscosity
Include the unit right after the number.

INSERT INTO measurements (compound, assay_result) VALUES
  ('Cc1ccc(C)cc1', '0.611 ± 0.0044 mPa·s'),
  ('c1ccccc1', '0.6025 ± 0.0043 mPa·s'),
  ('C1CCOC1 [tetrahydrofuran]', '0.458 ± 0.0035 mPa·s'),
  ('Cc1cc(C)cc(C)c1', '0.6572 ± 0.0049 mPa·s'),
  ('Cc1ccccc1C', '0.7576 ± 0.0053 mPa·s');

Quick note, viscosity for Cc1ccccc1 landed at 0.5531 ± 0.0039 mPa·s

Entry Cc1cccc(C)c1 — recorded viscosity = 0.588 ± 0.0043 mPa·s
